- Assay Target: p110α Type Ia human PI3K (Homo sapiens)
- Construct: full length DNA of each of the p110α, p110β and p110δ Type Ia human PI3K p110 isoforms; 6-His
- Sequence (P42336 whole entry, canonical isoform): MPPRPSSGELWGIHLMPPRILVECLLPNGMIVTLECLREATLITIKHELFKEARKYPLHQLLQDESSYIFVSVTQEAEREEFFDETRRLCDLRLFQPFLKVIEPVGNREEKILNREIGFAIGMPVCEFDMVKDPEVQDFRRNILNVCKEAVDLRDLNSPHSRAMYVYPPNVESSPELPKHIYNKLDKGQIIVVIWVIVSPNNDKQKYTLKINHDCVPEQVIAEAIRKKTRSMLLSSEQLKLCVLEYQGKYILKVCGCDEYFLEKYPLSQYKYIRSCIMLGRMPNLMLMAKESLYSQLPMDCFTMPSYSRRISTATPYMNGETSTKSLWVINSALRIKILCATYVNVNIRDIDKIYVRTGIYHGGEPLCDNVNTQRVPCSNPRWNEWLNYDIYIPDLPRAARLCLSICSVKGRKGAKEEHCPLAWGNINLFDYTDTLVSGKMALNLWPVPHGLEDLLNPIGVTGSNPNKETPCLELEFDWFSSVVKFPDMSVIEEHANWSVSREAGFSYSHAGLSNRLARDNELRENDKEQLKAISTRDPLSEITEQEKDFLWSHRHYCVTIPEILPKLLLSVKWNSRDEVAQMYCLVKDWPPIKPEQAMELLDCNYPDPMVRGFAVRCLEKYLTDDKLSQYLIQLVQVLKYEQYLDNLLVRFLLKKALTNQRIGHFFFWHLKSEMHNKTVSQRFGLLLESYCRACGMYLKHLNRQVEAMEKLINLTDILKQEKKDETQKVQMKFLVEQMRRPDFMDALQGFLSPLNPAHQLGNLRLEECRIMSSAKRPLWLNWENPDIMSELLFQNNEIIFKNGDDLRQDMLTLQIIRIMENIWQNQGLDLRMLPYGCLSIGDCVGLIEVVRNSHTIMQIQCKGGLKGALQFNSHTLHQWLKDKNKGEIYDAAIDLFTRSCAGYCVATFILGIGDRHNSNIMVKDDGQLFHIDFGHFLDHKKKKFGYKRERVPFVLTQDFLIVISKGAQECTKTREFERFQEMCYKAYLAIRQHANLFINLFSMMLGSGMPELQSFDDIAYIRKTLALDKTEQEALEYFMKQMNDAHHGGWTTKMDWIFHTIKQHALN
- Sequence (P27986 whole entry partner, canonical isoform): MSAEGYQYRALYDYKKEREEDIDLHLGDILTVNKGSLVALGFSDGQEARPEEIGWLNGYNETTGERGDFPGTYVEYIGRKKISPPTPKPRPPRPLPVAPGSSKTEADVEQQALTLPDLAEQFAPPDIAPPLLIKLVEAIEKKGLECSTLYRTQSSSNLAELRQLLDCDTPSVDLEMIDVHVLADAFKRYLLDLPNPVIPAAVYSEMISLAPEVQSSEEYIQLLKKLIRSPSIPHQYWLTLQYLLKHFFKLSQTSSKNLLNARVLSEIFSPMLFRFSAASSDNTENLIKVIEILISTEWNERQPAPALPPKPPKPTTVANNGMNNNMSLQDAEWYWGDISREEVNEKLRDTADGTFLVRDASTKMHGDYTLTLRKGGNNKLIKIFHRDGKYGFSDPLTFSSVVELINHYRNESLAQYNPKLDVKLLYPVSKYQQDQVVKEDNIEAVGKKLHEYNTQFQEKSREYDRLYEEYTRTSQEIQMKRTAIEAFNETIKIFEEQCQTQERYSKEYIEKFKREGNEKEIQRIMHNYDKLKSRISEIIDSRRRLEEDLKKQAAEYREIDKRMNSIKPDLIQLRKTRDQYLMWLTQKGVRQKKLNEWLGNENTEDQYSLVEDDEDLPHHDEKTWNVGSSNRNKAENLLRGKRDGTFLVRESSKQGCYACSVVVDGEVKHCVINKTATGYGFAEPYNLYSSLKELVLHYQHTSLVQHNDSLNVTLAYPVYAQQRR
- Assay Overview: In Vitro PI3K Enzyme Assay (AlphaScreen), Test (b)(i), p110α
- Stated Conditions: read-out: IC50 versus p110α Type Ia human PI3K
Property: IC50 (nM)
Numbers only; they are read as nM.

Task: Name the recorded IC50 of the compound listed here: C[C@H]1COCCN1c1cc(C2(S(C)(=O)=O)CC2)nc(-c2ccc(NC(=O)Nc3cnn(C)c3)cc2)n1
Output: 1040

====

- Assay Target: mTOR (Homo sapiens)
- Construct: FLAG; made in house
- Sequence (P42345 1362-2549): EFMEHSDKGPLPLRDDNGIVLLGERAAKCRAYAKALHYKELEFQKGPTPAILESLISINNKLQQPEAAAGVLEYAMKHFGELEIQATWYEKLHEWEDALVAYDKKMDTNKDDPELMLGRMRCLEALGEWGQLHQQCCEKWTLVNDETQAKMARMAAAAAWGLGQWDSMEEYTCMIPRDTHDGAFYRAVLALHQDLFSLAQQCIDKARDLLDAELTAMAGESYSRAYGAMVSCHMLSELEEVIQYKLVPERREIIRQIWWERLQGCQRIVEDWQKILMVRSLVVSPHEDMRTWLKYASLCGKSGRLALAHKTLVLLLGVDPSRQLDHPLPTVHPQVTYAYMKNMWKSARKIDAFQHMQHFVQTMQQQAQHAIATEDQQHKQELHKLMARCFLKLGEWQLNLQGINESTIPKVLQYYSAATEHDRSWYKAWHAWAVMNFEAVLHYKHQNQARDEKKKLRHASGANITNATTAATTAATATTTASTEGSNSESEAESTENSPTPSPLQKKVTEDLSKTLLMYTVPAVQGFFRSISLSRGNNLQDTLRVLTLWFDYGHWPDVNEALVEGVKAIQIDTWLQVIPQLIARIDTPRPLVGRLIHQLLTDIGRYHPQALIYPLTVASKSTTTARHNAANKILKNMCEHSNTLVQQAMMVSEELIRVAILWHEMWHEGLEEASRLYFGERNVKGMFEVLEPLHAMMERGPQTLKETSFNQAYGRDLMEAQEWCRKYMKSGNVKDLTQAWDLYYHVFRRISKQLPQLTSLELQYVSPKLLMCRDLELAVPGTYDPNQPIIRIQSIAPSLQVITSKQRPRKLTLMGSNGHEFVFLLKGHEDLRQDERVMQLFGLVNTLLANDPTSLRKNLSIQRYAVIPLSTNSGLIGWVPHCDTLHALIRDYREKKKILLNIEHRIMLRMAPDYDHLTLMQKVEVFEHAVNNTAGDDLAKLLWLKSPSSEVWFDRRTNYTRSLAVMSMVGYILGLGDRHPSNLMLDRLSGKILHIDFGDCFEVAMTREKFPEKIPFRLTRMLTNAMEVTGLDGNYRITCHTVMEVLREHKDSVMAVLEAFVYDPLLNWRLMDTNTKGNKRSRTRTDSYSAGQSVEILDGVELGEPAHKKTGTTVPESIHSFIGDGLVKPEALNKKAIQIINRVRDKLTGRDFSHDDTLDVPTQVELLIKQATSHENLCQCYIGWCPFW
- Assay Overview: In Vitro mTOR Kinase Assay (Echo), Test (a)(ii)
- Format: biochemical
- Stated Conditions: read-out: mTOR Kinase Assay (Echo)
- Excerpt: (a)(ii) In Vitro mTOR Kinase Assay (Echo) The assay used AlphaScreen technology (Gray et al., Analytical Biochemistry, 2003, 313: 234-245) to determine the ability of test compounds to inhibit phosphorylation by recombinant mTOR. A C-terminal truncation of mTOR encompassing amino acid residues 1362 to 2549 of mTOR (EMBL Accession No. L34075) was stably expressed as a FLAG-tagged fusion in HEK293 cells as described by Vilella-Bach et al., Journal of Biochemistry, 1999, 274, 4266-4272. […]
Property: IC50 (nM)
Provide the reading as a plain figure in nM.

C[C@H]1COCCN1c1cc(C2(S(C)(=O)=O)CCCC2)nc(-c2ccc(NC(=O)NCCCO)cc2)n1; 4.61
CS(=O)(=O)C1(c2cc(N3CCOCC3)nc(-c3ccc(NC(=O)NCCCO)cc3)n2)CCCC1 [Example 12o]; 5.09
CCNC(=O)Nc1ccc(-c2nc(N3CCOC[C@@H]3C)cc(C3(S(C)(=O)=O)CCCC3)n2)cc1; 2.16

Task: Give IC50 for the following compound: CCS(=O)(=O)C1(c2cc(N3CCOC[C@@H]3C)nc(-c3ccc(NC(=O)NC4CC4)cc3)n2)CC1
Output: 1.65
